For each of the compounds below, state its MIC.
Tested on: Haemophilus influenzae
Assay: Antimicrobial activity against beta-lactamase negative ampicillin-resistant Haemophilus influenzae by E-test
Assay type: functional
Report only the number, with the unit µg/mL understood.

Which MIC value is on record for C[C@@H](O)[C@H]1C(=O)N2C(C(=O)O)=C(S[C@@H]3CN[C@H](C(=O)N(C)C)C3)[C@H](C)[C@H]12 [MEROPENEM] ?
0.125

// lookup MIC for CO/N=C(\C(=O)N[C@@H]1C(=O)N2C(C(=O)O)=C(CSc3nc(=O)c(O)nn3C)CS[C@H]12)c1csc(N)n1 [CEFTRIAXONE]
0.012

Need MIC of CC1(C)S[C@@H]2[C@H](NC(=O)[C@H](N)c3ccccc3)C(=O)N2[C@H]1C(=O)O [AMPICILLIN] , thanks.
1
